Collected protein stability index values appear next to each entry.
B1: TRIM15 (parent)
chain: QSSGKILLCPLCQEEEQAETPMAP

- Variants of: B1
- Experiment: protein stability index of a GFP-peptide fusion (GPS, HEK-293T) (PSI 1-6); higher = more stable;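 also: lentivirally expressed fusions sorted by FACS into six bins by GFP to DsRed ratio, PSI derived from sequencing read proportions per bin multiplied by bin number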
- Recorded Conditions: c terminus: a fixed tail appended

Use these answered entries as a reference point.
[[record]]
mutant_label = "L8M"
quantity_measured = "protein stability index"
result = 3.79

[[record]]
mutant_label = "L8G"
quantity_measured = "protein stability index"
result = 4.08

[[record]]
mutant_label = "L7Y"
quantity_measured = "protein stability index"
result = 3.15


input: // protein stability index lookup, key: S3D
output: 3.07

input: Recorded protein stability index of Q17A , please.
output: 2.98

input: Form field: reported protein stability index of L7M
output: 3.51

input: Field request: protein stability index | item: Q17C
output: 2.23

input: Quick check: protein stability index of Q17R ?
output: 2.76
